The values you see were collected from paper PMC2248166.

molecular target: HLA A*3001 (Homo sapiens, UniProt P04439, D140H/D185E/E176W/F33S/G80R/H175R/K168Q/R138E/R41S); assay: biochemical
Sequence (P04439 25-365 limits assumed, stated change not applied): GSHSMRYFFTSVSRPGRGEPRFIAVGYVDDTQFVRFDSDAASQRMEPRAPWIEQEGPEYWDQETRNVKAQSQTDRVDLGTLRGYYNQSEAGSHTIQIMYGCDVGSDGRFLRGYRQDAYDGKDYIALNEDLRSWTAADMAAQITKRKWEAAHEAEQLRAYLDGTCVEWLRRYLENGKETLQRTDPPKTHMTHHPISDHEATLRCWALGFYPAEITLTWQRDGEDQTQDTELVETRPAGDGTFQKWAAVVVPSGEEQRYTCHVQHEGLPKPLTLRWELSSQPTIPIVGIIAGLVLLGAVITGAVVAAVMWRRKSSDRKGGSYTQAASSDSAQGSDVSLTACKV
pIC50: −log10 of the molar value. Where a SMILES comes first, the peptide text is derived from it.
Mark no (0) for pIC50 values under 8, and yes (1) for everything at or above.

Reference set, count: 3
1. CC(C)[C@H](NC(=O)[C@H](CO)NC(=O)[C@H](C)NC(=O)[C@H](Cc1c[nH]cn1)NC(=O)[C@H](CC(N)=O)NC(=O)[C@H](Cc1ccccc1)NC(=O)[C@H](C)NC(=O)[C@@H](N)CCCCN)C(=O)N[C@@H](CCCCN)C(=O)O [3102.0118] (H-KAFNHASVK-OH); no (0)
2. CC[C@H](C)[C@H](NC(=O)[C@H](Cc1ccccc1)NC(=O)[C@H](CCSC)NC(=O)[C@H](Cc1ccccc1)NC(=O)[C@H](CCCCN)NC(=O)[C@H](CC(N)=O)NC(=O)[C@H](CCCNC(=N)N)NC(=O)[C@@H](NC(=O)[C@@H](N)CCCNC(=N)N)[C@@H](C)CC)C(=O)O [3102.0998] (H-RIRNKFMFI-OH); yes (1)
3. CC(C)[C@H](NC(=O)[C@H](CO)NC(=O)[C@@H](NC(=O)[C@H](Cc1ccc(O)cc1)NC(=O)[C@@H](NC(=O)[C@H](Cc1ccccc1)NC(=O)[C@H](CCCCN)NC(=O)[C@H](CO)NC(=O)[C@H](C)N)C(C)C)C(C)C)C(=O)O [3102.0152] (H-ASKFVYVSV-OH); yes (1)

Please find the next compound below.
Query: Please tell me: is the compound CC(C)C[C@H](NC(=O)[C@@H]1CCCN1C(=O)[C@H](Cc1c[nH]cn1)NC(=O)[C@@H](NC(=O)[C@H](CS)NC(=O)[C@H](CCCCN)NC(=O)[C@@H](NC(=O)[C@@H](N)CO)C(C)C)[C@@H](C)O)C(=O)N[C@H](C(=O)O)C(C)C [3102.0215] (H-SVKCTHPLV-OH) at or over 8 in terms of pIC50?
Reply: yes (1)
